Test: Compound was tested in vitro for loss of compound after 4 hours exposure to hepatocytes of human at 25 uM concentration
Type: ADME, organism-based, Hepatocyte
Conditions: read-out: Metabolism
ENDPOINT_LABEL: metabolised at 4 h, 25 µM (%)
Answers are plain numbers, in %.

Query block: Could you tell me which metabolised at 4 h, 25 µM is on file for "Cc1cc(C(=O)Nc2cccn([C@@H](Cc3ccc(F)c(F)c3)C(=O)N[C@H](/C=C/C(=O)OC(C)C)C[C@@H]3CCNC3=O)c2=O)no1" ?
Result block: 87

###

Assay: Compound was tested for plasma concentration in dogs 7 hours after oral administration (30 mg/kg) in experiment 2
Format: ADME, organism-based, Canis lupus familiaris
Conditions: dog
ENDPOINT_LABEL: concentration at 7 h (nM)
Give bare numbers, in nM.

Query block: Could you tell me which concentration at 7 h is on file for "Cc1cc(C(=O)Nc2cccn([C@@H](Cc3ccc(F)c(F)c3)C(=O)N[C@H](/C=C/C(=O)OC(C)C)C[C@@H]3CCNC3=O)c2=O)no1" ?
Result block: 959

###

Molecular target: UniProt Q4U254
Sequence (Q4U254 as listed by the source): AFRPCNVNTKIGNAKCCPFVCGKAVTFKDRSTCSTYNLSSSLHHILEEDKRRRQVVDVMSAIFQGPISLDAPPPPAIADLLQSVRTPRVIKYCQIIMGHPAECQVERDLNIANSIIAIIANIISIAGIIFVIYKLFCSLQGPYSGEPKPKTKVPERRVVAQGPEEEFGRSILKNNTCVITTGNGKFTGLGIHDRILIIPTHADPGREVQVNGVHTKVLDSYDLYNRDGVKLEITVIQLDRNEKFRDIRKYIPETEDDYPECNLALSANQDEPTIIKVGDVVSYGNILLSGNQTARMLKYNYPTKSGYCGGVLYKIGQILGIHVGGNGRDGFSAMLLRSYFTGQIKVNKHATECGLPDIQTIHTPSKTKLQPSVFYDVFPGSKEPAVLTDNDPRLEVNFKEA
Mark 1.0 for reported K obs / 1 of 200000 M⁻¹ s⁻¹ or greater; mark 0.0 for anything smaller.

ENTRY_SMILES: C#CC[C@@H](C(=O)N[C@H](/C=C/C(=O)OCc1ccccc1)C[C@@H]1CCNC1=O)n1cccc(NC(=O)c2cc(C)on2)c1=O
LABEL_VALUE: 1.0

Query block: Hi team, for "CC[C@@H](C(=O)N[C@H](/C=C/C(=O)OC1CCC1)C[C@@H]1CCNC1=O)n1cccc(NC(=O)c2cc(C)on2)c1=O" , is the recorded K obs / 1 at or above 200000 M⁻¹ s⁻¹?
Result block: 0.0

Query block: Hi team, for "C#CC[C@@H](C(=O)N[C@H](/C=C/C(=O)OC(C)(C)C)C[C@@H]1CCNC1=O)n1cccc(NC(=O)c2cc(C)on2)c1=O" , is the recorded K obs / 1 at or above 200000 M⁻¹ s⁻¹?
Result block: 0.0

Query block: Hi team, for "C#CC[C@@H](C(=O)N[C@H](/C=C/C(=O)OCC)C[C@@H]1CCNC1=O)n1cccc(NC(=O)c2cc(C)on2)c1=O" , is the recorded K obs / 1 at or above 200000 M⁻¹ s⁻¹?
Result block: 1.0

Query block: Hi team, for "CC[C@@H](C(=O)N[C@H](/C=C/C(=O)OC1CCCCCC1)C[C@@H]1CCNC1=O)n1cccc(NC(=O)c2cc(C)on2)c1=O" , is the recorded K obs / 1 at or above 200000 M⁻¹ s⁻¹?
Result block: 0.0

Query block: Hi team, for "CC[C@@H](C(=O)N[C@H](/C=C/C(=O)OC1CCCCC1)C[C@@H]1CCNC1=O)n1cccc(NC(=O)c2cc(C)on2)c1=O" , is the recorded K obs / 1 at or above 200000 M⁻¹ s⁻¹?
Result block: 0.0

###

Experiment: Compound was tested in vitro for loss of compound after 30 min exposure to liver microsomes of human at 25 uM concentration
Format: ADME, organism-based
Settings: read-out: Metabolism
So I've got a bunch of compounds here, and I need their metabolised at 0.5 h, 25 µM values.
Give bare numbers, in %.

ENTRY_SMILES: C#CC[C@@H](C(=O)N[C@H](/C=C/C(=O)OC1CCC1)C[C@@H]1CCNC1=O)n1cccc(NC(=O)c2cc(C)on2)c1=O
metabolised at 0.5 h, 25 µM, %: 52
--
ENTRY_SMILES: CCOC(=O)/C=C/[C@H](C[C@@H]1CCNC1=O)NC(=O)[C@H](CC)n1cccc(NC(=O)c2cc(C)on2)c1=O
metabolised at 0.5 h, 25 µM, %: 61

In the following, a different compound is considered.
Query block: Could you tell me which metabolised at 0.5 h, 25 µM is on file for "C#CC[C@@H](C(=O)N[C@H](/C=C/C(=O)OC1CCCC1)C[C@@H]1CCNC1=O)n1cccc(NC(=O)c2cc(C)on2)c1=O" ?
Result block: 59
